molecular target: human full-length recombinant PKC βII (Homo sapiens); construct: Active human full-length recombinant PKC βII; purchased Invitrogen GmbH, Darmstadt, Germany; assay: Determination of PKC βII inhibition (Caliper mobility shift kinase assay); type: biochemical; details: final compound concentration 1.14 μM (±0.15 μM); 60 min incubation at 32° C.
MEASUREMENT KIND: inhibition at 1.14 µM (%)

Illustrative cases are given below, each with its answer.
>  <COMPOUND>
CC[C@@H]1CNC(C)(C)CN1Cc1cc(-c2ccc(O)cc2)nc2[nH]nc(C)c12 [Example 146]

>  <NUMERIC READOUT>
99

$$$$
>  <COMPOUND>
Cc1n[nH]c2nc(-c3ccc(O)cc3F)cc(CN3CC(C)NCC3C(F)(F)F)c12 (stereo not shown) [Example 19]

>  <NUMERIC READOUT>
99

$$$$
>  <COMPOUND>
CC[C@@]1(C)CN(Cc2cc(-c3ccc(O)cc3F)nc3[nH]nc(C)c23)C(C)(C)CN1 [Example 136]

>  <NUMERIC READOUT>
104

$$$$
>  <COMPOUND>
Cc1n[nH]c2nc(-c3ccc(O)cc3)cc(CN3CCNCC34CCCC4)c12 [Example 47]

>  <NUMERIC READOUT>
101

$$$$
>  <COMPOUND>
COC(=O)CN1CC(C)(C)N(Cc2cc(-c3ccc(O)cc3F)nc3[nH]nc(C)c23)CC1(C)C [Example 74]

>  <NUMERIC READOUT>
95

$$$$
>  <COMPOUND>
Cc1n[nH]c2nc(-c3ccc(O)cc3F)cc(CN3CC(C)(C)N(C[C@H]4COC(C)(C)O4)CC3(C)C)c12 [Example 69]

>  <NUMERIC READOUT>
92

$$$$
>  <COMPOUND>
CCC1(CC)CNC(C)(C)CN1Cc1cc(-c2ccc(O)cc2)nc2[nH]nc(C)c12 [Example 51]

>  <NUMERIC READOUT>
98

$$$$
>  <COMPOUND>
CCC1(CC)CN(Cc2cc(-c3ccc(O)cc3F)nc3[nH]nc(C)c23)C(C)(C)CN1 [Example 22]

>  <NUMERIC READOUT>
89

$$$$
>  <COMPOUND>
Cc1n[nH]c2nc(-c3ccc(O)cc3F)cc(CN3CC4(CCCC4)NC[C@@H]3C)c12 [Example 137]

>  <NUMERIC READOUT>
98

$$$$
>  <COMPOUND>
Cc1n[nH]c2nc(-c3ccc(O)cc3F)cc(CN3CCNC[C@H]3c3cccc(F)c3)c12 [Example 120]

>  <NUMERIC READOUT>
102

$$$$

P: Cc1n[nH]c2nc(-c3ccc(O)cc3)cc(CN3CCNCC3c3ccc(C(C)C)cc3)c12 (stereo not shown) [Example 45]
Q: Cc1n[nH]c2nc(-c3ccc(O)cc3F)cc(CN3CCNCC34CCC4)c12 [Example 17]
Task item: Parameter check: reported inhibition at 1.14 µM is higher for which label, P or Q ? Your choice should be expressed through its label.
Reply: Q

###

biological target: human full-length recombinant PKC βII (Homo sapiens, UniProt P05771); construct: Active human full-length recombinant PKC βII; purchased Invitrogen GmbH, Darmstadt, Germany; assay: Determination of PKC βII inhibition (Caliper mobility shift kinase assay); format: biochemical; conditions: final compound concentration 1.14 μM (±0.15 μM); 60 min incubation at 32° C.
Sequence (P05771 1-673 isoform P05771-2): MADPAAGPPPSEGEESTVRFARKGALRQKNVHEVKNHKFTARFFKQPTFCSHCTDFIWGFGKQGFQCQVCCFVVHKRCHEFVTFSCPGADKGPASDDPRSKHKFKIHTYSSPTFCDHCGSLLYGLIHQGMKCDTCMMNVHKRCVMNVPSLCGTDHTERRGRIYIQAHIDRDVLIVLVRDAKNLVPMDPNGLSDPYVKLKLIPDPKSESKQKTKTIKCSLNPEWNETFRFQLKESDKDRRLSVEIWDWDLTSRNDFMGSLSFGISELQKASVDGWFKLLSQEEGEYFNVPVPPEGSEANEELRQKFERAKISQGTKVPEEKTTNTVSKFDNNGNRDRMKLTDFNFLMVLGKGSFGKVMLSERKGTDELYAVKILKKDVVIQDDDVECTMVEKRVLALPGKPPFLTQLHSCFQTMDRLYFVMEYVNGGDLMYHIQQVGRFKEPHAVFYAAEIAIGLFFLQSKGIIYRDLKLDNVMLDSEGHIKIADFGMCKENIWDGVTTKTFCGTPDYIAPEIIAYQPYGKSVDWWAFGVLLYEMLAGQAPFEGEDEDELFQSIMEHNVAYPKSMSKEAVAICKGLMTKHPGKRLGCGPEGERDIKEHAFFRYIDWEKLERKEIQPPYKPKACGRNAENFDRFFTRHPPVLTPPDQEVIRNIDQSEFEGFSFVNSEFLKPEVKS
MEASUREMENT KIND: inhibition at 1.14 µM (%)

>  <MOLECULE>
Cc1n[nH]c2nc(-c3ccc(O)cc3)cc(CN3CCNCC34CC4)c12

>  <OUTPUT UNIT>
%

>  <inhibition at 1.14 µM>
97

$$$$
>  <MOLECULE>
Cc1n[nH]c2nc(-c3ccc(O)cc3F)cc(CN3CCNCC3c3ccccc3F)c12 (centres unmarked)

>  <OUTPUT UNIT>
%

>  <inhibition at 1.14 µM>
102

$$$$
>  <MOLECULE>
Cc1n[nH]c2nc(-c3ccc(O)cc3F)cc(CN3CC(C)NCC34CCCC4)c12 (centres unmarked)

>  <OUTPUT UNIT>
%

>  <inhibition at 1.14 µM>
99

$$$$
>  <MOLECULE>
Cc1n[nH]c2nc(-c3ccc(O)cc3F)cc(CN3CCNC(C)(C)C3)c12

>  <OUTPUT UNIT>
%

>  <inhibition at 1.14 µM>
86

$$$$
>  <MOLECULE>
Cc1n[nH]c2nc(-c3ccc(O)cc3F)cc(CN3CCNC[C@@H]3c3ccccc3)c12

>  <OUTPUT UNIT>
%

>  <inhibition at 1.14 µM>
91

$$$$
>  <MOLECULE>
COCC(=O)N1CC(C)(C)N(Cc2cc(-c3ccc(O)cc3)nc3[nH]nc(C)c23)CC1(C)C

>  <OUTPUT UNIT>
%

>  <inhibition at 1.14 µM>
99

$$$$
>  <MOLECULE>
CCC1CNC(C)(C)CN1Cc1cc(-c2ccc(O)cc2F)nc2[nH]nc(C)c12 (centres unmarked)

>  <OUTPUT UNIT>
%

>  <inhibition at 1.14 µM>
100

$$$$
>  <MOLECULE>
Cc1n[nH]c2nc(-c3ccc(O)cc3F)cc(CN3C[C@H](c4ccccc4)NC[C@H]3C)c12

>  <OUTPUT UNIT>
%

>  <inhibition at 1.14 µM>
86

$$$$

###

target: human full-length recombinant PKC βII (Homo sapiens, UniProt P05771); construct: Active human full-length recombinant PKC βII; purchased Invitrogen GmbH, Darmstadt, Germany; assay: Determination of PKC βII inhibition (Caliper mobility shift kinase assay); format: biochemical; settings: final compound concentration 1.14 μM (±0.15 μM); 60 min incubation at 32° C.
MEASUREMENT KIND: inhibition at 1.14 µM (%)

>  <COMPOUND>
CCC1CNC(C)(C)CN1Cc1cc(-c2ccc(O)cc2)nc2[nH]nc(C)c12 (centres unmarked)

>  <inhibition at 1.14 µM, %>
99

$$$$
>  <COMPOUND>
Cc1n[nH]c2nc(-c3ccc(O)cc3)cc(CN(C)C3CCNC3)c12 (centres unmarked)

>  <inhibition at 1.14 µM, %>
92

$$$$
>  <COMPOUND>
CC[C@]1(C)CN(Cc2cc(-c3ccc(O)cc3F)nc3[nH]nc(C)c23)C(C)(C)CN1

>  <inhibition at 1.14 µM, %>
106

$$$$
>  <COMPOUND>
COCCC(=O)N1CC(C)(C)N(Cc2cc(-c3ccc(O)cc3F)nc3[nH]nc(C)c23)CC1(C)C

>  <inhibition at 1.14 µM, %>
95

$$$$
>  <COMPOUND>
Cc1n[nH]c2nc(-c3ccc(O)cc3F)cc(CN3CCCC(C)(N)C3)c12 (centres unmarked)

>  <inhibition at 1.14 µM, %>
94

$$$$
>  <COMPOUND>
Cc1n[nH]c2nc(-c3ccc(O)cc3F)cc(CN3C[C@@H](C)NC[C@@H]3C(F)(F)F)c12

>  <inhibition at 1.14 µM, %>
93

$$$$
>  <COMPOUND>
Cc1n[nH]c2nc(-c3ccc(O)cc3)cc(CN3C[C@H](C)NC[C@H]3c3ccccc3)c12

>  <inhibition at 1.14 µM, %>
85

$$$$
>  <COMPOUND>
Cc1n[nH]c2nc(-c3ccc(O)cc3F)cc(CN3CCC[C@@](C)(N)C3)c12

>  <inhibition at 1.14 µM, %>
99

$$$$

###

molecular target: human full-length recombinant PKC βII (Homo sapiens); construct: Active human full-length recombinant PKC βII; purchased Invitrogen GmbH, Darmstadt, Germany; assay: Determination of PKC βII inhibition (Caliper mobility shift kinase assay); type: biochemical; conditions: final compound concentration 1.14 μM (±0.15 μM); 60 min incubation at 32° C.
MEASUREMENT KIND: inhibition at 1.14 µM (%)

Worked cases, inhibition at 1.14 µM given:
>  <COMPOUND>
Cc1n[nH]c2nc(-c3ccc(O)cc3F)cc(CN3CC(C)(C)NC[C@@]3(C)C3CC3)c12

>  <OUTPUT UNIT>
%

>  <NUMERIC READOUT>
91

$$$$
>  <COMPOUND>
CCNC(=O)N1CCCN(Cc2cc(-c3ccc(O)cc3F)nc3[nH]nc(C)c23)CC1C (stereo not drawn)

>  <OUTPUT UNIT>
%

>  <NUMERIC READOUT>
76

$$$$

A: Cc1n[nH]c2nc(-c3ccc(O)cc3F)cc(CN3C[C@H](C)NCC34CCCC4)c12
B: Cc1n[nH]c2nc(-c3ccc(O)cc3F)cc(CN3CCNC[C@H]3c3ccccc3)c12
Task item: Would you let me know which has the greater inhibition at 1.14 µM value, A or B ? Pick one and reply with its label.
Reply: A
(A: 87%, B: 42%)
